SUBJECT_OF_TEST: human AMPK α1β1γ1 enzyme (Homo sapiens, UniProt Q13131+Q9Y478)
Construct: purchased Carna Biosciences, Inc
Sequence (Q13131 10-559 limits assumed): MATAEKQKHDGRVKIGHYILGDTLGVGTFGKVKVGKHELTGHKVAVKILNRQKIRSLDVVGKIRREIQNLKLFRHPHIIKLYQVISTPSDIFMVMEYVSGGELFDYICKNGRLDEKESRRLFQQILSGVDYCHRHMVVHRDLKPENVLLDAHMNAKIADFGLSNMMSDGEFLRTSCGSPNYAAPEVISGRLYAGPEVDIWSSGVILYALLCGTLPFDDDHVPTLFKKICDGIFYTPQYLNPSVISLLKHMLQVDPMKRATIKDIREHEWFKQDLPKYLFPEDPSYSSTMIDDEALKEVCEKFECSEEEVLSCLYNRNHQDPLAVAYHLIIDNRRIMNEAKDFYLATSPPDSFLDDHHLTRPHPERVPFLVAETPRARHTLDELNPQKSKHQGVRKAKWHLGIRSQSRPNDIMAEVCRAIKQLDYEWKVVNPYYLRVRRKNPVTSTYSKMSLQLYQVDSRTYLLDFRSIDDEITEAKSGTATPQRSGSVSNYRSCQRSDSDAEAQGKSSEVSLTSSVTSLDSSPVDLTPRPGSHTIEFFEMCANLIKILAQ
Sequence (Q9Y478 whole entry): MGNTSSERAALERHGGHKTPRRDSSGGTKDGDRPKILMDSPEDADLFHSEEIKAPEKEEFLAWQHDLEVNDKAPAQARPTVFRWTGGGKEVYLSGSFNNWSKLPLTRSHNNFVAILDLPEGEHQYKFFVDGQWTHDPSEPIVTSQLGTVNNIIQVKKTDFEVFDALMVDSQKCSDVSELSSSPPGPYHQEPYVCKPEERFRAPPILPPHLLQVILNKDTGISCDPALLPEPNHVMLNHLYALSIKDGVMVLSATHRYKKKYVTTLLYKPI
Sequence (P54619 whole entry partner): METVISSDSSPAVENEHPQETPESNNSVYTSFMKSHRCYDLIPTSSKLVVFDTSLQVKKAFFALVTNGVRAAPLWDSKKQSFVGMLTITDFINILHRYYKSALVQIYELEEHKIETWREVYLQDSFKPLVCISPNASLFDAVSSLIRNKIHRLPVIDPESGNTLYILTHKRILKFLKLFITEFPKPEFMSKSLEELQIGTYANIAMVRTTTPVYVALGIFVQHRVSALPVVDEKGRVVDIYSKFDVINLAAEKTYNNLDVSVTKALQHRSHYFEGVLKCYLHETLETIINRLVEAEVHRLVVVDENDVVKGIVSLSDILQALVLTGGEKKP
MEASUREMENT_DESCRIPTION: AMPK activator evaluation, Test Example 1 (mobility shift, FL-Peptide 7)
Format: biochemical
EXPERIMENTAL_SETUP: human AMPK α1β1γ1, control without compound = 100%
Description: […] To detect phosphorylated fluorescent substrates, the reaction liquid was applied to a measuring device, LabChip EZ Reader II manufactured by Caliper Life Science, Inc., for detecting fluorescence by using differences in mobility due to differences in charge. […]
QUANTITY_MEASURED: EC150 (compound concentration showing 150% relative to the control) (nM)
Numbers only, in nM.

Here is how some compounds turned out for EC150 (compound concentration showing 150% relative to the control).
- COMPOUND: "COc1ccc(Oc2nc3nc(-c4ccc(N5CCOCC5)cc4)c(Cl)cc3[nH]2)cc1C(=O)O"
  RESULT_UNIT: "nM"
  QUANTITATIVE_READOUT: 17
- COMPOUND: "CC(=O)NC(C)(C)c1ccc(Oc2nc3nc(-c4ccc(C5(C(C)O)CC5)cc4)c(Cl)cc3[nH]2)cc1 (stereo not shown)"
  RESULT_UNIT: "nM"
  QUANTITATIVE_READOUT: 110
- COMPOUND: "CC(C)(CO)c1ccc(Oc2nc3nc(-c4ccc(C5(CO)CC5)cc4)c(Cl)cc3[nH]2)cn1"
  RESULT_UNIT: "nM"
  QUANTITATIVE_READOUT: 220

# next compound below
Sure, the documented EC150 (compound concentration showing 150% relative to the control) for CC(C)(NS(C)(=O)=O)c1ccc(Oc2nc3nc(-c4ccc(N5CCOCC5)cc4)c(Cl)cc3[nH]2)cc1 is 2800

----------
Provide the recorded Emax for the entries that follow.
SUBJECT_OF_TEST: Human AMPK α2β2γ1 (Homo sapiens, UniProt O43741+P54646)
Construct: The full length cDNAs of human AMPK P2 (NM_005399.3) and human AMPK α2 (NM_006252.3); 6×His (N); made in house; host or cells: Escherichia coli BL21 CodonPlus (DE3)-RIL
Sequence (P54646 whole entry, one chain of several): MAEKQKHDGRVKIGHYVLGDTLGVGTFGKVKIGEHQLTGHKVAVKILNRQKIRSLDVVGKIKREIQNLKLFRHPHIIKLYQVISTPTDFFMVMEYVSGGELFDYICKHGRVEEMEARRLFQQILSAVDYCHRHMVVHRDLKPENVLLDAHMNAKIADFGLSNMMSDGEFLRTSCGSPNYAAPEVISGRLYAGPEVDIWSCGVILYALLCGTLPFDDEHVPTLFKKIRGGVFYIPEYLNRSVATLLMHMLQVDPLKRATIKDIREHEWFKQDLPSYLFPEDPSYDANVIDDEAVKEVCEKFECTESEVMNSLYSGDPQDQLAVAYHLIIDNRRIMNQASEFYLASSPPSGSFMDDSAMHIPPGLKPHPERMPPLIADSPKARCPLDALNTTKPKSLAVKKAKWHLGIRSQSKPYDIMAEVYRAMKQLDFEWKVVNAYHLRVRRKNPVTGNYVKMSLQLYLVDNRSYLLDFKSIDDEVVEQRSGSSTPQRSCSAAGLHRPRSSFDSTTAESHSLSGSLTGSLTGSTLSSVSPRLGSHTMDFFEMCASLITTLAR
Sequence (O43741 whole entry, one chain of several): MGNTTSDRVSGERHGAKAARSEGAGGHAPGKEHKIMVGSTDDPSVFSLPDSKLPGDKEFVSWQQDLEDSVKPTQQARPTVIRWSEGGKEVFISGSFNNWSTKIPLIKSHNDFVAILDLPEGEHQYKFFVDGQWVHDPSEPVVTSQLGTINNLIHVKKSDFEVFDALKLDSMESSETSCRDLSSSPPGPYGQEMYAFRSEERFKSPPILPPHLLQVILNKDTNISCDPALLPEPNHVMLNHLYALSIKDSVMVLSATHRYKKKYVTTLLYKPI
MEASUREMENT_DESCRIPTION: AMPK activator evaluation, Test Example 2 (CaMKK2-phosphorylated enzyme, mobility shift)
Format: biochemical
EXPERIMENTAL_SETUP: human AMPK α2β2γ1 phosphorylated with CaMKK2, control = 100%; read-out: Emax (maximum rate of increase in activity within the measurement range)
One number for each entry, in %.

- COMPOUND: "Cc1ncc(Oc2nc3nc(-c4ccc(N5CCOCC5)cc4)c(Cl)cc3[nH]2)cn1"
  RESULT_UNIT: "%"
  Emax: 290

Quick request: Emax for each listed item, please.
1. Cc1ccc(Oc2nc3nc(-c4ccc(N5CCOCC5)cc4)c(Cl)cc3[nH]2)cc1C(N)=O
2. Cc1ccc(Oc2nc3cc(Cl)c(-c4ccc(-c5ccccc5O)cc4)nc3[nH]2)cc1C(=O)O
3. Cc1ccc(C(=O)O)cc1Oc1nc2nc(-c3ccc(N4CCOCC4)cc3)c(Cl)cc2[nH]1

-- reply
293
292
341

----------
SUBJECT_OF_TEST: human AMPK α1β1γ1 enzyme (Homo sapiens, UniProt Q13131+Q9Y478)
Construct: purchased Carna Biosciences, Inc
MEASUREMENT_DESCRIPTION: AMPK activator evaluation, Test Example 1 (mobility shift, FL-Peptide 7)
Assay type: biochemical
EXPERIMENTAL_SETUP: human AMPK α1β1γ1, control without compound = 100%; read-out: Emax (maximum rate of increase in activity within the measurement range)
Provide the recorded Emax for the entries that follow.
Give bare numbers, in %.

- COMPOUND: "CC(C)(CO)c1ccc(Oc2nc3nc(-c4ccc(C5(CO)CC5)cc4)c(Cl)cc3[nH]2)cn1"
  QUANTITATIVE_READOUT: 192
- COMPOUND: "CC(C)(CO)c1ccc(Oc2nc3nc(-c4ccc(N5CCOCC5)cc4)c(Cl)cc3[nH]2)cc1"
  QUANTITATIVE_READOUT: 205
- COMPOUND: "O=C(O)COc1ccc(Oc2nc3nc(-c4ccc(N5CCOCC5)cc4)c(Cl)cc3[nH]2)cc1"
  QUANTITATIVE_READOUT: 288
- COMPOUND: "CC(=O)NC(C)(C)c1ccc(Oc2nc3nc(-c4ccc(C5(CO)COC5)cc4)c(Cl)cc3[nH]2)cc1"
  QUANTITATIVE_READOUT: 220
- COMPOUND: "Clc1cc2[nH]c(Oc3ccccc3)nc2nc1-c1ccc(N2CCOCC2)cc1"
  QUANTITATIVE_READOUT: 267
- COMPOUND: "CC(C)(C(=O)O)c1ccc(Oc2nc3nc(-c4ccc(N5CCOCC5)cc4)c(Cl)cc3[nH]2)cc1"
  QUANTITATIVE_READOUT: 249
- COMPOUND: "COc1ccc(Oc2nc3nc(-c4ccc(N5CCOCC5)cc4)c(Cl)cc3[nH]2)cc1C(=O)O"
  QUANTITATIVE_READOUT: 237
- COMPOUND: "CC(=O)NC(C)(C)c1ccc(Oc2nc3nc(-c4ccc(C5=CCN(C)CC5)cc4)c(Cl)cc3[nH]2)cc1"
  QUANTITATIVE_READOUT: 301

State the recorded Emax for every item in the following list.
1. CC(=O)NC(C)(C)c1ccc(Oc2nc3nc(-c4ccc(C5CCOCC5)cc4)c(Cl)cc3[nH]2)cc1
2. Clc1cc2[nH]c(Oc3cccc(-c4nnn[nH]4)c3)nc2nc1-c1ccc(N2CCOCC2)cc1

-- reply
249
295
